# System Under Test: ALKBH5 (Homo sapiens, UniProt Q6P6C2)
# Construct: pNIC28-Bsa4 ALKBH5 (encompassing residues 66-292); made in house; host or cells: E. coli BL21 (DE3) Rosetta T1R
# Sequence (Q6P6C2 66-292): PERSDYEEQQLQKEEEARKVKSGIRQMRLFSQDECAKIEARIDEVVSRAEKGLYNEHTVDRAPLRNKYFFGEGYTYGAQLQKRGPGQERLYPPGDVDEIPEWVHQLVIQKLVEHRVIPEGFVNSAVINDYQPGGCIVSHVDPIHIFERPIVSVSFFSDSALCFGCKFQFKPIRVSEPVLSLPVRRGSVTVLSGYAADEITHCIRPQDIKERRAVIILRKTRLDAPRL
# Measurement Protocol: Differential scanning fluorimetry (DSF)-based binding assay, ALKBH5
# Particulars: 100 μM compound, 2 μM protein, 50 μM MnCl2
Value Type: Tm shift (ALKBH5) (°C)
Give just the number in °C; leave the unit off.

Below, each entry is followed by its recorded Tm shift (ALKBH5) result.
{"Substance": "ATTGTGG(A)CUGCAGC: unmethylated counterpart of the 15-mer m6A ssRNA", "System Under Test": "ALKBH5 (Homo sapiens, UniProt Q6P6C2)", "Value Type": "Tm shift (ALKBH5)", "Value Measured": 3.6}
{"Substance": "ATTGTGG(T)CTGCAGC: unmethylated counterpart of the 15-mer m3T ssDNA", "System Under Test": "ALKBH5 (Homo sapiens, UniProt Q6P6C2)", "Value Type": "Tm shift (ALKBH5)", "Value Measured": 3.4}
{"Substance": "ATTGTGG(m6A)CUGCAGC: 15-mer m6A-containing ssRNA", "System Under Test": "ALKBH5 (Homo sapiens, UniProt Q6P6C2)", "Value Type": "Tm shift (ALKBH5)", "Value Measured": 3.5}

In the following, a different substance is considered.
Request: Look up Tm shift (ALKBH5) for this substance: ATTGTGG(m3T)CTGCAGC: 15-mer m3T-containing ssDNA
Response: 2.6

* * *

# System Under Test: AlkB (Escherichia coli, UniProt P05050)
# Sequence (P05050 12-216): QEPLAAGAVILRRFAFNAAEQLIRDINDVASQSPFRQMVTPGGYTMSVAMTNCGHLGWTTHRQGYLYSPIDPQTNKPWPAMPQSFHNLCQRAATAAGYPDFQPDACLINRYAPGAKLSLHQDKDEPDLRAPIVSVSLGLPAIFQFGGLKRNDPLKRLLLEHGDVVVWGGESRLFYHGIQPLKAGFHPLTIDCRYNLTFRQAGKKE
Threshold 70 µM: IC50 strictly smaller gives TRUE, otherwise FALSE.

As a guide, the following entries are already answered.
{"Molecule": "O=C(O)C=CC(=O)NNC(=O)c1cc(Cc2ccccc2)ccn1", "Label Value": "TRUE"}
{"Molecule": "O=C(O)/C=C/C(=O)NNC(=O)c1cccnc1", "Label Value": "FALSE"}

Request: Threshold test, IC50 < 70 µM: O=C(O)/C=C/C(=O)NNC(=O)c1ccccn1
Response: FALSE

Request: Param item: O=C(O)/C=C/C(=O)NNC(=O)c1cnccc1Cc1ccccc1
Response: TRUE

Request: Please give the result for O=C(O)CNC(=O)C(=O)O [NOG, N-oxalylglycine, reference compound] too.
Response: FALSE

* * *

# Measurement Protocol: MTT cell viability assay
# Type: cell-based
# Particulars: human, HeLa cells, read-out: cells remaining viable (MTT)
# Protocol: Kinetics of FTO inhibition by 12 To determine the mode of inhibition of FTO by 12 with respect to m3T substrate, various concentrations of m3T (5 μM, 10 μM, 25 μM and 50 μM) were incubated with FTO (1 μM) in the presence of 0 μM, 2 μM, or 5 μM of 12. Reactions were adjusted to ensure that less than 20% of the substrate was consumed, and were analysis on a HPLC system. […] HeLa cells were treated with 50 μM 25 or 50 μM 12. […] The number of cells in each sample was determined. […]
Value Type: viability at 24 h, 100 µM

Request: I have this compound here, CCOC(=O)/C=C/C(=O)NNC(=O)c1cnccc1Cc1ccccc1 , and I need its recorded viability at 24 h, 100 µM.
Response: > 80%

* * *

# System Under Test: ALKBH2 (Homo sapiens)
# Construct: made in house; host or cells: E. coli BL21 (DE3)
# Sequence (Q6NS38 56-258): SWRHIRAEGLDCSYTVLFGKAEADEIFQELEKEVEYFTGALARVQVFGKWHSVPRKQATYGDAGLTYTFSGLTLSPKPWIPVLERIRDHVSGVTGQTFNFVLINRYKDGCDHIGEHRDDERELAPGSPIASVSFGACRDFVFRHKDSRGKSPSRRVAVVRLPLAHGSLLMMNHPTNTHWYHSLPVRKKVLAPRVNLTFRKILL
# Measurement Protocol: Differential scanning fluorimetry (DSF)-based binding assay, ALKBH2
# Particulars: DSF, 100 μM compound, 2 μM protein, 50 μM MnCl2; read-out: Tm shift (ALKBH2)
Value Type: ΔTm at 100 µM (°C)
I only need the number, in °C, no unit after it.

Request: Form field - read-out: ΔTm at 100 µM; system: ALKBH2 (Homo sapiens); submitted item: O=C(O)/C=C/C(=O)NNC(=O)c1cccnc1
Response: 2

Request: Entry O=C(O)/C=C/C(=O)NNC(=O)c1cnccc1Cc1ccccc1 please
Response: 4.9

Request: Another compound to look at: O=C(O)/C=C/C(=O)NNC(=O)c1ccccn1
Response: 2.3

Request: Subsequent entry: O=C(O)C=CC(=O)NNC(=O)c1cc(Cc2ccccc2)ccn1
Response: 3.7

Request: Follow-up item: Cc1cn([C@H]2C[C@H](O)[C@@H](CO)O2)c(=O)n(C)c1=O
Response: 1.1

Request: Now this one: CNc1ncnc2c1ncn2[C@@H]1O[C@H](CO)[C@@H](O)[C@H]1O
Response: 1.3

* * *

# System Under Test: FTO (Homo sapiens, UniProt Q9C0B1)
# Construct: The human full length FTO construct used in this study; made in house; host or cells: E. coli BL21 (DE3) Rosetta T1R
# Sequence (Q9C0B1 whole entry): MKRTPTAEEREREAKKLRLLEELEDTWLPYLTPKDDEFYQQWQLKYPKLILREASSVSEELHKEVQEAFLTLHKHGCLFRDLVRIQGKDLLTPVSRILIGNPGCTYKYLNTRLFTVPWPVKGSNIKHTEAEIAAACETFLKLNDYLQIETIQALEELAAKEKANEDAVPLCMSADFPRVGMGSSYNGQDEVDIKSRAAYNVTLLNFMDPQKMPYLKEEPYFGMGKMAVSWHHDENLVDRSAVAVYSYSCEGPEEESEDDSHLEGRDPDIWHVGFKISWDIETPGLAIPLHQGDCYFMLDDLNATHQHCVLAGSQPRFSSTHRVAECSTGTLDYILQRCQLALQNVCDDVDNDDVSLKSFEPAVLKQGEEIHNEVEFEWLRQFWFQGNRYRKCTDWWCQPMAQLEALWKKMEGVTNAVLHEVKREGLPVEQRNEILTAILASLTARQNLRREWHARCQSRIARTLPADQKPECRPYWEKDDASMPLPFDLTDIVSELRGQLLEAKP
# Measurement Protocol: HPLC-based inhibition assay for FTO, m3T substrate
# Type: biochemical
pIC50: −log10 of the molar value.
Value Type: pIC50

Request: Given CN(C)NC(=O)CCC(=O)O [daminozide, reference compound] , state its recorded pIC50.
Response: < 4.00

* * *

# System Under Test: ALKBH3 (Homo sapiens, UniProt Q96Q83)
# Construct: Human ALKBH3 (encompassing residues 1- 286); purchased ProSpec-Tany Technogene Ltd, Israel
# Measurement Protocol: Differential scanning fluorimetry (DSF)-based binding assay, ALKBH3
# Particulars: DSF, 100 μM compound, 2 μM protein, 50 μM MnCl2
# Description: Superdex-200 column (GE Healthcare) pre-equilibrated with 20 mM HEPES, pH 7.5, 300 mM NaCl, 10% (v/v) glycerol, 0.5 mM TCEP. […] Differential scanning fluorimetry (DSF)-based binding assay […] mix. Fluorescence readings were taken every 1°C in the range 25-95°C, with the temperature increased linearly by 1°C min -1. […] The inflection point, representing Tm, was calculated by fitting the Boltzmann equation to the sigmoidal curves obtained; data were processed using GraphPad Prism 6.0™. […]
The entries below are paired with their reported Tm shift (ALKBH3).
Be sure to follow the number with its unit.

{"Substance": "ATTGTGG(m6A)CUGCAGC: 15-mer m6A-containing ssRNA", "Tm shift (ALKBH3)": "3.0 °C"}
{"Substance": "ATTGTGG(m3T)CTGCAGC: 15-mer m3T-containing ssDNA", "Tm shift (ALKBH3)": "2.9 °C"}
{"Substance": "ATTGTGG(T)CTGCAGC: unmethylated counterpart of the 15-mer m3T ssDNA", "Tm shift (ALKBH3)": "2.4 °C"}

Request: Which Tm shift (ALKBH3) is reported with ALKBH3 (Homo sapiens, UniProt Q96Q83) for this entry: ATTGTGG(A)CUGCAGC: unmethylated counterpart of the 15-mer m6A ssRNA ?
Response: 3.5 °C

* * *

# System Under Test: JMJD2A (Homo sapiens)
# Sequence (O75164 1-359): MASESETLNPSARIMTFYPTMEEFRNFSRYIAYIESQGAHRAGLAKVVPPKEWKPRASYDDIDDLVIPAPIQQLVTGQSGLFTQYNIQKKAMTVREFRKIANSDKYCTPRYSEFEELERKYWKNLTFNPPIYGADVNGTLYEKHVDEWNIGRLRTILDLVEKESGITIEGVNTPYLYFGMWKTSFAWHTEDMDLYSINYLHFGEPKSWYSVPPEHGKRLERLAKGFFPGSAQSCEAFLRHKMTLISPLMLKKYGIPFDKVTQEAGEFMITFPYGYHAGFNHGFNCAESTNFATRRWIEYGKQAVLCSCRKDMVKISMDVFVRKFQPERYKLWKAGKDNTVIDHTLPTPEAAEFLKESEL
Value Type: IC50

Request: Would you mind telling me what IC50 value was observed for O=C(O)/C=C/C(=O)NNC(=O)c1cnccc1Cc1ccccc1 ?
Response: > 300 µM

* * *

# System Under Test: ALKBH2 (Homo sapiens, UniProt Q6NS38)
In this section we review reported pIC50 values for a set of molecules.
Lab note: report pIC50 as minus log10 of the concentration in molar units, number only.

{"Molecule": "O=C(O)/C=C/C(=O)NNC(=O)c1cnccc1Cc1ccccc1 [Compound 12]", "System Under Test": "ALKBH2 (Homo sapiens, UniProt Q6NS38)", "pIC50": 4.59}
{"Molecule": "O=C(O)/C=C/C(=O)NNC(=O)c1ccccn1 [Compound 23]", "System Under Test": "ALKBH2 (Homo sapiens, UniProt Q6NS38)", "pIC50": 3.90}

Request: Under ALKBH2 (Homo sapiens, UniProt Q6NS38): pIC50 value of O=C(O)C=CC(=O)NNC(=O)c1cc(Cc2ccccc2)ccn1 [Compound 22] ?
Response: 4.40

Request: Also O=C(O)CNC(=O)C(=O)O [NOG, N-oxalylglycine, reference compound] ?
Response: 3.90

* * *

# System Under Test: ALKBH3 (Homo sapiens, UniProt Q96Q83)
# Sequence (Q96Q83 1-286): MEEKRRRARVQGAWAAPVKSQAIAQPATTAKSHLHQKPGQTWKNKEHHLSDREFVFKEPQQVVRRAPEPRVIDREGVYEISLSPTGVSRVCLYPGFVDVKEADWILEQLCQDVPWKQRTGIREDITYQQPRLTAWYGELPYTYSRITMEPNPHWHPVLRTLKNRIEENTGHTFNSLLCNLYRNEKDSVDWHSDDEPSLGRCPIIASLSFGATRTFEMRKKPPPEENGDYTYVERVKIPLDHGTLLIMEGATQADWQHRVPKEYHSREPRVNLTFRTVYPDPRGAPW
pIC50: −log10 of the molar value.
Returns Met if the recorded pIC50 is greater than or equal to 4, and Not met otherwise.

Solved entries:
{"Chemical Structure": "O=C(O)/C=C/C(=O)NNC(=O)c1ccccn1", "System Under Test": "ALKBH3 (Homo sapiens, UniProt Q96Q83)", "Label Value": "Not met"}
{"Chemical Structure": "O=C(O)/C=C/C(=O)NNC(=O)c1cnccc1Cc1ccccc1", "System Under Test": "ALKBH3 (Homo sapiens, UniProt Q96Q83)", "Label Value": "Met"}

Then this compound:
Request: Is pIC50 at least 4? Consider O=C(O)C=CC(=O)NNC(=O)c1cc(Cc2ccccc2)ccn1
Response: Met
